- target or test system: T1, human PDGF-BB (human)
- T1 construct: The ELISA text names human PDGF-BB of Cell Signaling, Cat. No 8921BF
- T1 chain: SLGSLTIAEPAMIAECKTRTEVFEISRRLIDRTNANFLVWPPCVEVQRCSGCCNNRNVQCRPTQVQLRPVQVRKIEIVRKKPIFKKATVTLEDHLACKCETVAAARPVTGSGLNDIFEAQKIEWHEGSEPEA
- assay procedure: SPR, Fab fragment; assay format for PDGF not described
measured parameter: pKd
Numbers only, as −log10 of the molar value.

| binder | pKd |
| --- | --- |
| bispecific anti-VEGF/anti-PDGF-B Fab fragment 28.07 (Fab, V domains shown) VH: DLQLVESGGGLVKPGGSLRLSCAADGWWFGYTDMSWVRQAPGKGLEWVGSISYKGGHKYLNTKFIGRFTISRDDDTNTLYLQMNSLRAEDTAVYYCARDDGYFDTWGQGTLVTVSS VL: AIYMHQEPSSLSASVGDRVTITCHGSYWLSNYLAWYQQKPGKAPKLLIYDGKEREHGVPSRFSGSGSHEDYTLTISSLQPEDFATYYCQQYRYHPYTFGHGTKVEIKR | 8.85 |
| bispecific anti-VEGF/anti-PDGF-B Fab fragment 28.01 (Fab, V domains shown) VH: DLQLVESGGGLVKPGGSLRLSCAADGWWFGYTDMSWVRQAPGKGLEWVGSISYKGGSTYYNTKFIGRFTISRDDDTNTLYLQMNSLRAEDTAVYYCARDDGYFDTWGQGTLVTVSS VL: AIHMYQEPSSLSASVGDRVTITCHGSYWLSNYLAWYQQKPGKAPKLLIYDGKEREHGVPSRFSGSGSHEDYTLTISSLQPEDFATYYCQQYRYHPYTFGHGTKVEIKR | 8.89 |
| bispecific anti-VEGF/anti-PDGF-B Fab fragment RO7113083 (Fab, V domains shown, also called R07113083) VH: DLQLVESGGGLVKPGGSLRLSCAADGWWFGYTDMSWVRQAPGKGLEWVGSISYKGGSTYYNTKFIGRFTISRDDDTNTLYLQMNSLRAEDTAVYYCARDDGYFDTWGQGTLVTVSS VL: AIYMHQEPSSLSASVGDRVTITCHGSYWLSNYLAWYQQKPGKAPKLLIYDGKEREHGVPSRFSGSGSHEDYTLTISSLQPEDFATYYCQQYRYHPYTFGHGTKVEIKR | 8.89 |

q: // returns reported pKd for input bispecific anti-VEGF/anti-PDGF-B Fab fragment 28.02 (Fab, V domains shown) VH: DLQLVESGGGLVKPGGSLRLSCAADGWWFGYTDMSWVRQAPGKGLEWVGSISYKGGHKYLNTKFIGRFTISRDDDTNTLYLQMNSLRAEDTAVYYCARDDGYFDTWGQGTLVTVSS VL: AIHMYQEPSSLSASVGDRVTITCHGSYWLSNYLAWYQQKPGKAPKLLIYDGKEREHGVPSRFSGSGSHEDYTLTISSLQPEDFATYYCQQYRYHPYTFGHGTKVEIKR
a: 8.89
